system: Klebsiella aerogenes DSM 30053; assay: fold change of Putrescine concentration vs plate DMSO controls (fold change (ratio)); higher = more amine produced, active = hit call of the paper (significant change in both replicates, either direction); settings: incubation time: 27 h, anaerobic, 37 °C
Structures can show the parent of a compound that is named as a salt.
reported_property: fold change of Putrescine concentration

Exercise: Determine from records and report fold change of Putrescine concentration for CO/N=C(\C(=O)N[C@@H]1C(=O)N2C(C(=O)[O-])=C(C[n+]3ccn4ncccc43)CS[C@H]12)c1nsc(N)n1 [Cefozopran hydrochloride] (20 µM)
Key: 0.898 (inactive)

Exercise: Determine from records and report fold change of Putrescine concentration for CC[C@H](C)C(=O)O[C@H]1C[C@@H](C)C=C2C=C[C@H](C)[C@H](CC[C@@H]3C[C@@H](O)CC(=O)O3)[C@H]21 [Lovastatin] (20 µM)
Key: 1.02 (inactive)

Exercise: Determine from records and report fold change of Putrescine concentration for NC(CO)C(=O)NNCc1ccc(O)c(O)c1O (stereo not drawn) [Benserazide hydrochloride] (20 µM)
Key: 1.03 (inactive)

Exercise: Determine from records and report fold change of Putrescine concentration for O=P(O)(O)C(Cl)(Cl)P(=O)(O)O [Clodronate disodium] (20 µM)
Key: 1.02 (inactive)

Exercise: Determine from records and report fold change of Putrescine concentration for C[N+]1(CCCCC[N+]2(C)CCCC2)CCCC1 [Pentolinium bitartrate] (20 µM)
Key: 1.01 (inactive)

Exercise: Determine from records and report fold change of Putrescine concentration for CCCCCCCC/C=C\CCCCCCCC(N)=O [Oleamide] (20 µM)
Key: 1.01 (inactive)

Exercise: Determine from records and report fold change of Putrescine concentration for C#C[C@]1(O)CC[C@H]2[C@@H]3CCC4=Cc5oncc5C[C@]4(C)[C@H]3CC[C@@]21C [Danazol] (20 µM)
Key: 1.02 (inactive)

Exercise: Determine from records and report fold change of Putrescine concentration for O=C(O)CCNC(=O)c1ccccc1 [Betamipron] (20 µM)
Key: 1 (inactive)

====

test system: Ruminococcus gnavus DSM 108212; assay: growth (OD595) fold change vs plate DMSO controls (fold change (ratio)); higher = more growth; conditions: incubation time: 27 h, anaerobic, 37 °C
Counter-ions that a name gives are not always drawn.
Think of 0.8 as a floor: if growth stands on it or above, it is 1; beneath it, 0.

Exercise: Entry CNc1ncnc2c1ncn2[C@@H]1O[C@H](CO)[C@@H](O)[C@H]1O [N6-methyladenosine] (20 µM) : is its growth no less than 0.8?
Key: 1

Exercise: Entry Cc1cccc(N(C)C(=S)Oc2ccc3ccccc3c2)c1 [Tolnaftate] (20 µM) : is its growth no less than 0.8?
Key: 1

Exercise: Entry CCN(CCCc1ccccc1)CCCc1ccccc1 [Alverine citrate salt] (20 µM) : is its growth no less than 0.8?
Key: 0

Exercise: Entry CC(COc1ccccc1)NC(C)C(O)c1ccc(O)cc1 (stereo not given) [Isoxsuprine hydrochloride] (20 µM) : is its growth no less than 0.8?
Key: 1

Exercise: Entry N=C(N)N/N=C/c1c(Cl)cccc1Cl [Guanabenz acetate] (20 µM) : is its growth no less than 0.8?
Key: 1

====

test system: Ruminococcus gnavus DSM 108212; assay: fold change of Tryptamine concentration vs plate DMSO controls (fold change (ratio)); higher = more amine produced, active = hit call of the paper (significant change in both replicates, either direction); conditions: incubation time: 27 h, anaerobic, 37 °C;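 for the amine columns active = adjusted P below 0.05 in both replicates with a change the same way and a mean fold change under 0.8 or over 1.25; inactive = the rest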
Where a name gives a salt, the structure may show the parent alone.
Please state which outcome applies, choosing from active, inactive

Exercise: Outcome? C/C(=C(\CCOP(=O)(O)O)SC(=O)c1ccccc1)N(C=O)Cc1cnc(C)nc1N [Benfotiamine] (20 µM)
Key: inactive

Exercise: Outcome? c1ccc([C@H]2CN3CCSC3=N2)cc1 [Levamisole hydrochloride] (20 µM)
Key: inactive

Exercise: Outcome? CC[C@H]1OC(=O)[C@H](C)[C@@H](O[C@H]2C[C@@](C)(OC)[C@@H](O)[C@H](C)O2)[C@H](C)[C@@H](O[C@@H]2O[C@H](C)C[C@H](N(C)C)[C@H]2O)[C@](C)(O)C[C@@H](C)/C(=N\OCOCCOC)[C@H](C)[C@@H](O)[C@]1(C)O [Roxithromycin] (20 µM)
Key: active

Exercise: Outcome? COc1ccc(C(=O)c2ccc(C)cc2)c(O)c1 [Mexenone] (20 µM)
Key: inactive

Exercise: Outcome? CC[C@H](C)[C@H](NC(=O)[C@H](Cc1ccc(O)cc1)NC(=O)[C@@H](NC(=O)[C@H](CCCN=C(N)N)NC(=O)[C@@H](N)CC(=O)O)C(C)C)C(=O)N[C@@H](Cc1cnc[nH]1)C(=O)N1CCC[C@H]1C(=O)N[C@@H](Cc1ccccc1)C(=O)O [Angiotensin II (Human) Trifluoroacetic acid salt] (20 µM)
Key: inactive

Exercise: Outcome? CC1(C)NC(=O)N(c2ccc([N+](=O)[O-])c(C(F)(F)F)c2)C1=O [Nilutamide] (20 µM)
Key: inactive

====

tested on: Klebsiella aerogenes DSM 30053; assay: growth (OD595) fold change vs plate DMSO controls (fold change (ratio)); higher = more growth; conditions: incubation time: 27 h, anaerobic, 37 °C
Where a name gives a salt, the structure may show the parent alone.
reported_property: growth
Response field accepts a number only; no unit should be typed.

Exercise: Determine from records and report growth for Cc1cc(NC(=O)C2=C(O)c3ccccc3S(=O)(=O)N2C)no1 [Isoxicam] (20 µM)
Key: 0.997

Exercise: Determine from records and report growth for OC[C@@H](O)[C@@H](O)[C@H](O)[C@H](O)CO [Mannitol] (50 µM)
Key: 0.982

Exercise: Determine from records and report growth for O=P(O)(O)C(Cl)(Cl)P(=O)(O)O [Clodronate disodium] (20 µM)
Key: 1.02

Exercise: Determine from records and report growth for COC(=O)C1=C(C)NC(C)=C(C(=O)OC2CCCN(Cc3ccccc3)C2)C1c1cccc([N+](=O)[O-])c1 (centres undefined) [Benidipine hydrochloride] (20 µM)
Key: 1.02

====

Kindly supply the reported fold change of Cadaverine concentration values for the records listed here.
test system: Escherichia coli IAI1; test: fold change of Cadaverine concentration vs plate DMSO controls (fold change (ratio)); higher = more amine produced, active = hit call of the paper (significant change in both replicates, either direction); settings: incubation time: 27 h, anaerobic, 37 °C
Where a name gives a salt, the structure may show the parent alone.

Exercise: Determine from records and report fold change of Cadaverine concentration for CCCCC(=O)O[C@H]1CC[C@H]2[C@@H]3CCc4cc(O)ccc4[C@H]3CC[C@]12C [Estradiol Valerate] (20 µM)
Key: 0.926 (inactive)

Exercise: Determine from records and report fold change of Cadaverine concentration for Cn1c(=O)c2c(ncn2CC2OCCO2)n(C)c1=O [Doxofylline] (20 µM)
Key: 1 (inactive)

Exercise: Determine from records and report fold change of Cadaverine concentration for N=c1nc(N2CCCCC2)cc(N)n1O [Minoxidil] (20 µM)
Key: 0.995 (inactive)

Exercise: Determine from records and report fold change of Cadaverine concentration for CC(=O)Oc1cc(C(C)C)c(OCCN(C)C)cc1C [Moxisylyte hydrochoride] (20 µM)
Key: 0.986 (inactive)

Exercise: Determine from records and report fold change of Cadaverine concentration for OCc1cc(C(O)CNCCCCCCOCCCCc2ccccc2)ccc1O (stereo not given) [Salmeterol] (20 µM)
Key: 1.02 (inactive)

Exercise: Determine from records and report fold change of Cadaverine concentration for Cc1ccnc2c1NC(=O)c1cccnc1N2C1CC1 [Nevirapine] (20 µM)
Key: 1.02 (inactive)

Exercise: Determine from records and report fold change of Cadaverine concentration for CC(=O)OC(C)C[N+](C)(C)C (stereo not given) [Methacholine chloride] (20 µM)
Key: 0.985 (inactive)

Exercise: Determine from records and report fold change of Cadaverine concentration for Cn1c([N+](=O)[O-])cnc1COC(N)=O [Ronidazole] (20 µM)
Key: 1.17 (inactive)

Exercise: Determine from records and report fold change of Cadaverine concentration for CC1c2cccc(O)c2C(O)=C2C(=O)C3(O)C(O)=C(C(N)=O)C(=O)C(N(C)C)C3C(O)C21 (stereo not given) [Doxycycline hydrochloride] (20 µM)
Key: 0.412 (active)

Exercise: Determine from records and report fold change of Cadaverine concentration for CN(C)CCC=C1c2ccccc2C=Cc2ccccc21 [Cyclobenzaprine hydrochloride] (20 µM)
Key: 1.01 (inactive)

Exercise: Determine from records and report fold change of Cadaverine concentration for CN(C)c1cc(NC(=O)CNC(C)(C)C)c(O)c2c1C[C@H]1C[C@H]3[C@H](N(C)C)C(=O)C(C(N)=O)=C(O)[C@@]3(O)C(=O)C1=C2O [Tigecycline] (20 µM)
Key: 0.967 (inactive)

Exercise: Determine from records and report fold change of Cadaverine concentration for CO[C@H]1/C=C/O[C@@]2(C)Oc3c(C)c(O)c4c(O)c(c(/C=N/N5CCN(C)CC5)c(O)c4c3C2=O)NC(=O)/C(C)=C\C=C\[C@H](C)[C@H](O)[C@@H](C)[C@@H](O)[C@@H](C)[C@H](OC(C)=O)[C@@H]1C [Rifampicin] (20 µM)
Key: 1.14 (inactive)

Exercise: Determine from records and report fold change of Cadaverine concentration for CO/N=C(\C(=O)N[C@@H]1C(=O)N2C(C(=O)O)=C(COC(N)=O)CS[C@H]12)c1ccco1 [Cefuroxime sodium salt] (20 µM)
Key: 1.98 (active)

Exercise: Determine from records and report fold change of Cadaverine concentration for Nc1nc(=O)n([C@@H]2CS[C@H](CO)O2)cc1F [(-) Emtricitabine] (20 µM)
Key: 0.996 (inactive)

Exercise: Determine from records and report fold change of Cadaverine concentration for CC(=O)NS(=O)(=O)c1ccc(N)cc1 [Sulfacetamide sodic hydrate] (20 µM)
Key: 0.98 (inactive)
